Source listed as patent US20240246964A1.

target: human PD-L1 (Homo sapiens (Human), UniProt Q9NZQ7); experiment: T cell activation luciferase reporter cell culture system (T Cell Activation Assay); assay type: cell-based; conditions: luciferase reporter assay; PD-L1 aAPC/CHO-K1 cells with PD-1 effector Jurkat T cells
Sequence (Q9NZQ7 19-290): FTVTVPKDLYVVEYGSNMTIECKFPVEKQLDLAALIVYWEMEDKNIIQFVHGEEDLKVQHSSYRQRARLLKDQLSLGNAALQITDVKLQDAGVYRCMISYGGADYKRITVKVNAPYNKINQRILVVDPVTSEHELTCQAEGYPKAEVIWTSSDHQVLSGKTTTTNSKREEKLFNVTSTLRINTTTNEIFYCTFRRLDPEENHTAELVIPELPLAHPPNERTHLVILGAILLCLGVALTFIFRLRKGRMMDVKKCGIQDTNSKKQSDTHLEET
result-type: EC50 (nM)

> print(dat)
                              smiles.record  unit.text  value.modifier  assay.value
1  COc1cc(-c2nccc(-c3cccc(-c4ccc(CN5CCC(C(C)=O)CC5)c(OC)n4)c3Cl)c2Cl)ccc1CN1CCC(C(C)=O)CC1         nM               ≥        10000
2  COc1nc(-c2ccnc(-c3cccc(NC(=O)c4cn(C)c(=O)n(C)c4=O)c3Cl)c2Cl)ccc1CNC[C@H](C)O         nM               =          372
3  COc1cc(-c2nccc(-c3cccc(-c4ccc(CNC5CCN(C(C)=O)CC5)c(OC)n4)c3Cl)c2Cl)ccc1CN[C@@H](CCO)C(=O)O         nM               =          248

###

biological target: PD-L1 His protein / PD-1 Fc protein (Homo sapiens (Human), UniProt Q9NZQ7); experiment: HTRF Assay (PD-1/PD-L1 interaction); format: binding; settings: PD-L1 His 6 nM, PD-1 Fc 6 nM
result-type: IC50 (nM)

> print(dat)
                                   compound  assay.value
1  COc1cc(-c2nccc(-c3cccc(-c4ccc(CNC[C@H](C)O)c(OC)n4)c3Cl)c2Cl)cc2c1CN(C[C@H](C)O)CC2 [Compound 214]         4.31
2  COc1cc(-c2nccc(-c3cccc(-c4ccc(CN5CC6(CCC(=O)N6)C5)c(OC)n4)c3Cl)c2Cl)cnc1CN1CC2(CCC(=O)N2)C1 [Compound 430]         0.35
3  COc1cc(-c2nccc(-c3cccc(-c4ccc(CNC5CCOCC5)c(OC)n4)c3C#N)c2Cl)ccc1CNC1CCOCC1 [Example 652]         0.07

###

target: human PD-L1 (Homo sapiens (Human)); assay: T cell activation luciferase reporter cell culture system (T Cell Activation Assay); assay type: cell-based; conditions: luciferase reporter assay; PD-L1 aAPC/CHO-K1 cells with PD-1 effector Jurkat T cells
EC50 for assorted compounds
result-type: EC50 (µM)

> print(dat)
                                    compound  result.type  value.modifier  assay.value
 1  COc1cc(-c2nccc(-c3cccc(-c4ccc(CNC[C@@H]5CCC(=O)N5)c(OC)n4)c3Cl)c2Cl)ccc1[C@H](C)N [Example 335]         EC50               =       0.0498
 2  COc1cc(-c2nccc(-c3cccc(-c4ccc5c(OC)c(CNC[C@@H]6CCC(=O)N6)cc(Cl)c5n4)c3Cl)c2Cl)ccc1CNC[C@@H]1CCC(=O)N1 [Compound 207]         EC50               =        0.118
 3  COc1nc(-c2cccc(-c3ccnc(-c4ccc5c(c4)S(=O)(=O)CCNC5)c3Cl)c2Cl)ccc1CNC[C@@H]1CCC(=O)N1 [Compound 177]         EC50               =        0.176
 4  COc1cc(-c2nccc(-c3cccc(-c4ccc(CNC5CCN(c6ccccn6)CC5)c(OC)n4)c3Cl)c2Cl)ccc1CNC1CCN(c2ccccn2)CC1 [Example 444]         EC50               ≥           10
 5  COc1nc(-c2cccc(-c3ccnc(-c4ccc5c(CN(C)C6CCN(C(C)=O)CC6)cn(C)c5c4)c3Cl)c2Cl)ccc1CNC[C@@H]1CCC(=O)N1 [Compound 56]         EC50               =       0.0368
 6  COc1cc(-c2ncnc(-c3cccc(-c4ccc(CNC5CCN(C(C)=O)CC5)c(OC)n4)c3Cl)c2OC)ccc1CNC1CCN(C(C)=O)CC1 [Example 717]         EC50               ≥           10
 7  COc1cc(-c2nccc(-c3cccc(-c4ccc(CNC5CCN(C(C)=O)CC5)c(OC)n4)c3Cl)c2Cl)ccc1CN1CC2(CC(O)C2)C1 [Example 361]         EC50               =       0.0405
 8  COc1nc(-c2cccc(-c3ccnc(-c4ccc5c(c4)OCCN(C[C@H](C)O)C5)c3Cl)c2Cl)ccc1CNC[C@@H]1CCC(=O)N1 [Compound 25]         EC50               =        0.334
 9  COc1cc(-c2nccc(-c3ccnc(-c4cnc5c(CNC[C@@H]6CCC(=O)N6)cn(C)c5c4)c3Cl)c2Cl)ccc1CNC[C@@H]1CCC(=O)N1 [Compound 16]         EC50               =        0.355
10  CNCc1ccc(C(=O)Nc2cccc(-c3ccnc(-c4ccc(CNC[C@@H]5CCC(=O)N5)c(OC)c4)c3Cl)c2Cl)nc1 [Example 751]         EC50               =      0.00568
11  CNCc1ccc(-c2nccc(-c3cccc(-c4ccc(CNC5CCN(C(C)=O)CC5)c(OC)n4)c3Cl)c2Cl)cc1OC [Example 240]         EC50               =       0.0291
12  COCC(=O)N1CCC(NCc2ccc(-c3cccc(-c4ccnc(-c5ccc(CN6CC7(C6)CN(C(C)=O)C7)c(OC)c5)c4Cl)c3Cl)nc2OC)CC1 [Example 491]         EC50               =       0.0318
